# Test system: HCT-116
# protocol_description: NCI tumour cell line growth inhibition, 48 h
Active and inactive are the calls of the source. No stated cut-off is given here; in the data, active = GI50 up to about 1.1 µM and inactive = higher.
Can you answer with just one of these options? active, inactive

[
  {
    "compound": "CCN1C2=NCCN2S(=O)(=O)c2ccccc21",
    "label": "inactive"
  }
]

Inquiry: Dear colleague, could you share the recorded outcome for O/N=C1/CCCc2nonc21 when you have a moment?
Reply text: inactive

Inquiry: Given O=c1c(C(c2cc(OCc3ccccc3)cc(OCc3ccccc3)c2)c2c(O)oc3ccccc3c2=O)c(O)oc2ccccc12 , state the outcome it received in this test.
Reply text: inactive

Inquiry: Record lookup: outcome of this test for O=C1N[C@H](C(=O)O)[C@@H](c2ccc(OCc3ccccc3)cc2)O1 ?
Reply text: inactive

Inquiry: Which outcome did this test record for the compound CN(C)c1ccc(C(=O)NCCCCCCC(=O)NO)cc1 ?
Reply text: active

Inquiry: Hi team, can someone confirm the assay call for CSCCC(NC(c1ccccc1)c1ccccc1)[PH](=O)O (configuration not stated) ?
Reply text: inactive

Inquiry: Short answer needed: outcome of this test for O=C1/C(=C\c2ccc(Cl)cc2Cl)Sc2scc(-c3cccc([N+](=O)[O-])c3)[n+]21 ?
Reply text: inactive

Inquiry: For this compound, state the assay outcome: O=C/C1=C/C2=Cc3ccccc3C=C(/C=C(/C=O)C1)C2
Reply text: inactive

Inquiry: // param item: CCCOc1nc(N)c2cnn(C3CCCCO3)c2n1 (configuration not stated) ; yields the recorded call
Reply text: inactive

Inquiry: So what was the verdict on Cc1ccc2c(c1)S(=O)(=O)c1ccc3ccccc3c1N2 in this test?
Reply text: inactive

Inquiry: What did the test return for COc1ccc(OC)c2cc(C3(C)SCCCS3)ccc12 ?
Reply text: inactive

Inquiry: Which outcome was entered for the compound COc1cccc2cc(C(=O)O)c(=O)oc12 in this test?
Reply text: inactive

Inquiry: Recorded test call requested for COc1cccc(C2c3cc4c(cc3OC(N3CCCCC3)C2C)OCO4)c1OC (configuration not stated)
Reply text: inactive

Inquiry: For COc1ccc(NC(=O)CC/C(CC(=O)C(C)(C)C)=N\NC(=O)C(N)=O)cc1 , which call appears in the assay record?
Reply text: inactive

Inquiry: Call for entry NNc1ccccc1Cl :
Reply text: inactive

Inquiry: Tell me the recorded outcome of this test for CC1=Nc2c(ccc3c2C(=O)c2ccccc2C3=O)NC(c2ccncc2)C1 (configuration not stated) .
Reply text: inactive

Inquiry: Per the records of this test, what outcome belongs to CC(=O)N1C(=O)CC2(N=C(C)CC2=O)c2ccccc21 (configuration not stated) ?
Reply text: inactive

Inquiry: I would be grateful if you could indicate the recorded call for COc1cc2c[n+](C)c3c4cc(OC)c(OC(C)C)cc4ccc3c2cc1OC .
Reply text: inactive

Inquiry: What is the recorded call for this compound in the test? COc1ccc2c(c1)[C@@H]1c3cc(OC)c(OC)cc3CCN1CCC2
Reply text: inactive

---

Item-by-item account of GI50
# System: OVCAR-5
# protocol_description: NCI tumour cell line growth inhibition, 48 h
Calls of active or inactive are those of the source. Rule as the data show it: active = GI50 up to about 1.1 µM and inactive = higher.

Below: 7 compounds and their reported GI50.
[
  {
    "compound": "CO[C@@H]1C=C[C@@]23c4cc5c(cc4CN(C[C@@H]2O)[C@H]3C1)OCO5 [(+)-HAEMANTHAMINE]",
    "reported_measurement": "41.9 µM (inactive)"
  },
  {
    "compound": "C#CCCOC(=O)CC1=C(C)/C(=C/c2ccc([S+](C)[O-])cc2)c2ccc(F)cc21 (stereo not drawn)",
    "reported_measurement": "34.2 µM (inactive)"
  },
  {
    "compound": "Cc1ccc2c(c1)S(=O)(=O)c1ccc3ccccc3c1N2",
    "reported_measurement": "> 100 µM (inactive)"
  },
  {
    "compound": "Cc1ccc(CC2(OCCN(C)C)CCC(C(C)(C)C)CC2)cc1 (stereo not drawn)",
    "reported_measurement": "3.3 µM (inactive)"
  },
  {
    "compound": "Cc1ccc(S(=O)(=O)OCC/C(=C\\[Si](C)(C)C)c2ccccc2)cc1",
    "reported_measurement": "> 100 µM (inactive)"
  },
  {
    "compound": "COc1ccccc1N1CCN(CCCNC(=O)c2cc(Cl)c(N)c(Cl)c2)CC1",
    "reported_measurement": "44.6 µM (inactive)"
  },
  {
    "compound": "COC(=O)c1c(O)ccc2c1c1cc3ccccc3c(O)c1n2CCc1ccc(OC)c(OC)c1",
    "reported_measurement": "> 100 µM (inactive)"
  }
]

Please examine the following record next.
Inquiry: GI50 of NCCCNOCCCN on OVCAR-5?
Reply text: > 100 µM (inactive)

---

# System: NCI-H23
# protocol_description: NCI tumour cell line growth inhibition, 48 h
Active and inactive are the calls of the source. No stated cut-off is given here; in the data, active = GI50 up to about 1.1 µM and inactive = higher.
Reply using exactly one outcome from t = active, f = inactive

[
  {
    "compound": "O=C1NC2c3c(I)sc(I)c3C(=O)C2O1 (stereo not given)",
    "system_tested": "NCI-H23",
    "label": "f"
  }
]

Inquiry: Please let me know the test result on file for COc1cc(O)c2c(c1)OCC1(Cc3cc(OC)c(OC)cc31)C2=O (stereo not given) .
Reply text: f

Inquiry: Outcome logged for Cn1ccnc1CC(C)(O)c1ccccc1 (stereo not given) in this assay:
Reply text: f

Inquiry: Assay outcome for Cc1ccc(/C=N/Nc2cc(C)c3cccc(C)c3n2)s1 : what was it?
Reply text: f

Inquiry: Tell me the assay call for COc1ccc(CCNC(=O)c2ccccc2C2c3ccc(OCc4ccccc4)cc3Oc3cc(OCc4ccccc4)ccc32)cc1OC please.
Reply text: f

---

# Tested on: NCI-H460
# protocol_description: NCI tumour cell line growth inhibition, 48 h
Activity calls are given as the source filed them. Cut-off read from the data, not from the text of the source: active = GI50 up to about 1.1 µM and inactive = higher.
# GI50 annotations

[
  {
    "compound": "O=C1CCSSCCC(=O)Nc2ccccc2N1",
    "reported_measurement": "> 100 µM (inactive)"
  },
  {
    "compound": "Cn1nc(N)nc1N=S(C)(C)=N",
    "reported_measurement": "> 100 µM (inactive)"
  },
  {
    "compound": "C#CCCOC(=O)CC1=C(C)/C(=C/c2ccc([S+](C)[O-])cc2)c2ccc(F)cc21 (stereo not given)",
    "reported_measurement": "18 µM (inactive)"
  },
  {
    "compound": "CC1(C)CCCC2(C)C3C(O)CC2(C)C(O)C31 (stereo not given)",
    "reported_measurement": "> 100 µM (inactive)"
  }
]

Inquiry: May I ask what GI50 has been recorded for CCOC(=O)/C(=C\NC#N)c1nc2ccccc2[nH]1 ?
Reply text: 60.5 µM (inactive)

Inquiry: Name the reported GI50 value associated with the compound [O-][N+]1=NC(c2ccccc2)=C1c1ccccc1
Reply text: > 50 µM (inactive)

Inquiry: Quick check: GI50 of N#CCCN(CCCN(C(=O)Nc1ccc(NC(=O)N(CCCN(CCC#N)C(N)=O)c2ccccc2)cc1)c1ccccc1)C(N)=O ?
Reply text: > 100 µM (inactive)

Inquiry: Given CO[C@H](c1ccccc1)[C@H](O)[C@](O)(c1ccccc1)P(=O)(OC)OC , state its recorded GI50.
Reply text: > 100 µM (inactive)

Inquiry: Need GI50 of O=c1c(C(c2cc(OCc3ccccc3)cc(OCc3ccccc3)c2)c2c(O)oc3ccccc3c2=O)c(O)oc2ccccc12 , thanks.
Reply text: 3.45 µM (inactive)

Inquiry: Consider the compound S=c1sc2sc(=S)sc2s1 and give its measured GI50.
Reply text: 22.4 µM (inactive)

---

# GI50 per entry
# Tested on: SK-OV-3
# protocol_description: NCI tumour cell line growth inhibition, 48 h
Active and inactive are the calls of the source. No stated cut-off is given here; in the data, active = GI50 up to about 1.1 µM and inactive = higher.

Study these solved cases before continuing.
[
  {
    "compound": "CC(O)(Cc1ccccc1C#N)Cc1ccccc1C#N",
    "GI50": "> 100 µM (inactive)"
  },
  {
    "compound": "O=C1C=CC(=O)c2ccc(=O)ccc21",
    "GI50": "24.1 µM (inactive)"
  }
]

Inquiry: I am curious: what GI50 value has been reported for COc1ccc2c(c1)CC1(O)COc3cc(OC)ccc3C1O2 (stereo not given) ?
Reply text: > 100 µM (inactive)

Inquiry: Reported GI50 for CC(=O)N[C@@H](Cc1ccc(O)cn1)C(=O)NCc1ccc(Cl)cc1 : what is it?
Reply text: > 100 µM (inactive)

Inquiry: Which GI50 value is on record for CC1(Cl)C(=O)NC(=O)N(C2CC(N=[N+]=[N-])C(CO)O2)C1N=[N+]=[N-] (stereo not given) ?
Reply text: > 100 µM (inactive)

Inquiry: Reported GI50, compound NNC(=O)C1CCC(=O)N1S(=O)(=O)c1ccccc1 (stereo not given) : ____
Reply text: > 100 µM (inactive)

Inquiry: Recorded GI50 of OC(c1ccc(Cl)cc1)(c1ccc(Cl)cc1)c1cncnc1 , please.
Reply text: > 10 µM (inactive)

Inquiry: What value of measured GI50 is listed for CC(C)(C)C1=Nc2c(Br)cc(C(C)(C)C)cc2C(C(F)(F)F)(C(F)(F)F)O1 ?
Reply text: > 100 µM (inactive)

Inquiry: GI50 lookup needed for COC(=O)CC(NC(=O)OCc1ccccc1)C(C(C)=O)C(=O)OCc1ccccc1 (stereo not given) , thanks.
Reply text: > 31.6 µM (inactive)

Inquiry: Look up GI50 for this compound: C[C@H]1CCC2C(OC(=O)[C@@H]2CN(C)C)[C@]2(C)C(=O)C=CC12O (stereo not given in full)
Reply text: 16.9 µM (inactive)
